# target desc: von Willebrand factor full length (Homo sapiens, UniProt P04275 SEQ:764-2813)
# experiment description: filter; 20 nM protein
# details: tags: Calbiochem 681300

binder | binding signal
AMX237.C5 (ssDNA) DNA: CTACCTACGATCTGACTAGCGTGCAGTGCCTATCTCAGGCCGTGCGGTATCCTCCGTCACGCTTACTCTCATGTAGTTCC | 2.55 ratio to no protein
AMX237.C9 (ssDNA) DNA: CTACCTACGATCTGACTAGCTTGGTAGTGACTTTGTGGAGCTGCGGTTTGGTCGACGTCAGCTTACTCTCATGTAGTTCC | 2.05 ratio to no protein
AMX238.F2 (ssDNA) DNA: CTACCTACGATCTGACTAGCATGCAGTGCCCATTCTAGGCCGTGCGGTGCCTCCGTCATGCTTACTCTCATGTAGTTCC | 2.84 ratio to no protein
